Data provenance: PubChem BioAssay

experiment: RPL19A-GFP modulators, yeast TOR pathway, confirmation, cell-based, S. cerevisiae, flow cytometry, cherry picks, mother/daughter gates (AID 2270); settings: S. cerevisiae RPL19A-GFP strain, 3 h, measured here: daughter cell gate, at 10 µM, stronger effect = lower value, 100 = same GFP as DMSO wells
Measure: GFP response vs DMSO (%)
Numbers only, in %.

The following molecules have reported results that may help.
Molecule | GFP response vs DMSO / %
CCC(Sc1nc(=O)cc(N)n1-c1ccccc1)C(=O)Nc1cc(C)on1 (stereo not given) | 98.8
COc1cc(NC(C)=O)ccc1NC(=O)c1cc2ccccc2o1 | 97.8
CCc1nnc(N2C(=O)c3cccc4cccc(c34)C2=O)s1 | 95

Record GFP response vs DMSO for all entries; do not skip any.
1. COc1ccc(/C=N/NC(=O)C2(C)NC(C)(C)Cc3ccccc32)cc1 (stereo not given)
2. O=[N+]([O-])c1cc(CN2CCN(c3ccccc3)CC2)c(O)c2ncccc12
3. COC(=O)COc1ccc(S(=O)(=O)N2CCc3ccccc3C2)cc1
4. CCOc1c(Br)ccc2c1sc1nc[nH]c(=O)c12

stdout:
[94.9, 108, 100, 99.8]

Record GFP response vs DMSO for all entries; do not skip any.
1. CSC1=NC(=O)/C(=C/c2ccc(SC)cc2)S1
2. CCn1c(=O)c(C(=O)NCc2ccc(OC)c(OC)c2)c(O)c2ccccc21
3. CCN=C(NCC)SC1CC(=O)N(c2cccc(OCC)c2)C1=O (stereo not given)
4. COc1cccc(/C=N/Nc2nc(-c3cccnc3)nc3ccccc23)c1
5. O=C1c2ccsc2SCCN1Cc1c(F)cccc1Cl
6. Cc1ccccc1OCC(=O)NNC(=S)NC(=O)c1ccco1

stdout:
1: 78; 2: 99.1; 3: 97.1; 4: 93.3; 5: 90.7; 6: 111

Record GFP response vs DMSO for all entries; do not skip any.
1. COc1cc(OC)cc(-c2nc(-c3ccccc3OC)no2)c1
2. O=C(COC(=O)c1cccs1)Nc1nc(-c2ccccc2)cs1
3. Cc1cccn2c(=O)c(/C=C(\C#N)C(=O)NCc3ccco3)c(N3CCCCCC3)nc12
4. CCOC(=O)Cn1cc(/C=C/[N+](=O)[O-])c2ccccc21
5. COc1cc(/C=C2/C(=O)ON=C2c2ccccc2)ccc1O
6. Cc1ccc(Nc2c(-c3ccccn3)nc3ccc(C)cn23)cc1
7. O=C(Nc1cccc(Cl)c1N1CCCC1)c1ccc([N+](=O)[O-])o1
8. CC(C)(C)C(=O)C(Cl)C(=O)Nc1ccccc1 (stereo not given)

stdout:
1: 99.3; 2: 95.6; 3: 97.3; 4: 92.7; 5: 108; 6: 106; 7: 96.4; 8: 89.6

====

experiment: modulators of CIT2-GFP expression in yeast, confirmation, S. cerevisiae, GFP fusion, cherry picks, mother/daughter gates (AID 2274); conditions: S. cerevisiae CIT2-GFP strain, flow cytometry, 3 h; measured here: mother cell gate; at 10 µM; stronger effect = higher value
Measure: GFP response, % of DMSO (%)
Numbers only, in %.

Record GFP response, % of DMSO for all entries; do not skip any.
1. CC(=O)Nc1cccc(/C(C)=N/NC(=O)c2ccccc2Cl)c1
2. O=C1C(Cl)=C(N2CCN(Cc3ccccc3)CC2)C(=O)N1c1ccccc1
3. COc1cccc(/C=N/NC(=O)CCC(=O)Nc2ccc(Br)cc2)c1

stdout:
1. 99.7
2. 96.6
3. 99.3

====

test: inhibitors of CD8+ T cell-vesicle binding, pilot screen, LFA-1/ICAM-1 modulator project, MLPCN validation set, flow cytometry (AID 2523); conditions: 2C mouse CD8+ T cells, at 7 µM, stronger effect = lower value;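 note: mean PE anti-B7-1 fluorescence of CD8+ cells relative to row control; 100% = QL9-loaded vesicles with DMSO vehicle in the same plate row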
Criterion: vesicle binding response strictly less than 200%. Met: 1.0. Not met: 0.0.

Recorded results for 3 molecules are shown here.
Structure Smiles String | Label Value
CC[C@]1(O)C[C@@H]2CN(CCc3c([nH]c4ccccc34)[C@@](C(=O)OC)(c3cc4c(cc3OC)N(C)[C@H]3[C@@](O)(C(=O)OC)[C@H](OC(C)=O)[C@]5(CC)C=CCN6CC[C@]43[C@@H]65)C2)C1 | 1.0
Cc1cc(-c2ccccc2)nnc1NCCN1CCOCC1 | 0.0
OCC1(CCOc2ccccc2)CCN(CCCn2cccn2)CC1 | 0.0

# evaluate next
stdin: Consider the molecule O=C(Cc1ccc(Br)cc1)c1ccc(O)cc1O . Is its vesicle binding response strictly less than 200%?
stdout: 0.0

====

assay: AGP1-GFP expression modulators, hit retest, confirmation, cell-based, flow cytometry, S. cerevisiae, cherry picks (AID 2273);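 note: median GFP channel fluorescence over the whole cell population gate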; conditions: S. cerevisiae AGP1-GFP strain, 3 h, at 10 µM
Measure: GFP response, % of DMSO (%)
Give bare numbers, in %.

The following compounds have reported results that may help.
Compound | GFP response, % of DMSO [%]
O=C(N/N=C/c1cccc(Oc2ccccc2)c1)c1ccncc1 | 103
CNC(=O)/C(C#N)=C/c1c(N(Cc2ccccc2)Cc2ccccc2)nc2c(C)cccn2c1=O | 103
O=C(O)CSC1CC(=O)N(c2ccc(Cl)c(Cl)c2)C1=O (stereo not given) | 101
O=C(Cn1c(=O)oc2cc(S(=O)(=O)N3CCCC3)ccc21)Nc1ccccc1Br | 99.9
COc1ccc(CCNC2=C(Cl)C(=O)N(CCc3ccccc3)C2=O)cc1OC | 97.4
O=S(=O)(Nc1nc2ccccc2nc1Cl)c1ccc2ccccc2c1 | 95.9
Cc1cccc(CS(=O)(=O)c2ncc(Cl)c(C(=O)NCc3ccc4c(c3)OCO4)n2)c1 | 98.7
N#C/C(=C\c1c(N2CCN(c3ccccc3)CC2)nc2ccccn2c1=O)C(N)=O | 106

Record GFP response, % of DMSO for all entries; do not skip any.
1. CC(C)c1nnc(NC(=O)c2nc(S(=O)(=O)Cc3ccccc3)ncc2Cl)s1
2. CCN(CC)CCCN(C(=O)c1ccc(Br)cc1)c1nc(-c2ccc(OC)cc2)cs1
3. COC(=O)c1ccc(/C=C/C(=O)c2ccc(OC)cc2)cc1
4. Cc1cc(O)c(C(=O)/C=C/c2c(F)c(F)c(F)c(F)c2F)c(=O)o1

stdout:
1: 102; 2: 97.9; 3: 94.9; 4: 101

Record GFP response, % of DMSO for all entries; do not skip any.
1. C=CCNC(=S)N/N=C(\C)c1cccc(OC)c1
2. Oc1ccc(C2Nc3cccc4cccc(c34)N2)cc1
3. CCN(CC)c1ccc(/C=C2\SC(=O)N(C(C)C)C2=O)o1

stdout:
1: 95.2; 2: 98.7; 3: 105

====

experiment: modulators of CIT2-GFP expression in yeast, confirmation, S. cerevisiae, GFP fusion, cherry picks, mother/daughter gates (AID 2274); settings: S. cerevisiae CIT2-GFP strain, flow cytometry, 3 h; measured here: mother cell gate; at 10 µM; stronger effect = higher value
Hi there, I'd appreciate the recorded GFP response, % of DMSO for every entry that follows.
Number first, unit second.

The following compounds have reported results that may help.
Compound | GFP response, % of DMSO
Cc1ccc(-c2nn(C(C)(C)C)c3ncnc(N)c23)cc1 | 43.5%
O=C(c1ccccc1)N1CCN(c2ccccc2F)CC1 | 90.4%

Record GFP response, % of DMSO for all entries; do not skip any.
1. Cc1cccn2c(=O)c(/C=C(\C#N)C(=O)NC3CCS(=O)(=O)C3)c(N3CCC(C(N)=O)CC3)nc12 (centres undefined)
2. Cc1ccc(N2C(=O)C3C4C=CC(CNC(=S)Nc5ccc(F)cc5)(O4)C3C2=O)cc1 (centres undefined)

stdout:
1. 96.8%
2. 110%

====

Hi there, I'd appreciate the recorded vesicle binding response for every entry that follows.
experiment: inhibitors of CD8+ T cell-vesicle binding, pilot screen, LFA-1/ICAM-1 modulator project, MLPCN validation set, flow cytometry (AID 2523); conditions: 2C mouse CD8+ T cells, at 7 µM, stronger effect = lower value;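 note: mean PE anti-B7-1 fluorescence of CD8+ cells relative to row control; 100% = QL9-loaded vesicles with DMSO vehicle in the same plate row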
The source made the active and inactive calls.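 The calls were made as follows: active = response below a set limit, under 55% cells CD8-positive and vesicle-bound, and CD8 cells' 90th-percentile brightness under 279; inactive = the rest.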

Compound | Measure | Observed Result
CC(C)Cn1c(=S)[nH]c2cc(C(=O)O)ccc2c1=O | vesicle binding response | 197% (inactive)
COc1cc2c(cc1OC)-c1cc(OCc3ccccc3Cl)nc(=O)n1CC2 | vesicle binding response | 172% (inactive)
CCN(CC)C(=S)SSC(=S)N(CC)CC | vesicle binding response | 164% (inactive)
Oc1[nH]c2ccccc2c1N=Nc1ccccc1 | vesicle binding response | 168% (inactive)
CC(C)C[C@H](NC(=O)[C@@H]1Cc2ccccc2CN1C(=O)OC(C)(C)C)C(=O)NCC1CCC(C(=O)O)CC1 (stereo partly specified) | vesicle binding response | 257% (inactive)

The record that follows has no vesicle binding response shown yet.
stdin: Specify reported vesicle binding response for the compound shown: CC(C)CN1CC(C(=O)O)CC1=O (stereo unspecified)
stdout: 66.5% (inactive)

====

biological target: Beta-adrenergic receptor kinase 1 (Homo sapiens) (UniProt P25098); assay: GRK2 binders displacing RNA aptamer, biochemical, validation, human GRK2, bead flow cytometry (AID 488806); details: bead-bound GRK2, FAM-aptamer displacement, at 10 µM, stronger effect = higher value
Sequence (P25098 whole entry, looked up): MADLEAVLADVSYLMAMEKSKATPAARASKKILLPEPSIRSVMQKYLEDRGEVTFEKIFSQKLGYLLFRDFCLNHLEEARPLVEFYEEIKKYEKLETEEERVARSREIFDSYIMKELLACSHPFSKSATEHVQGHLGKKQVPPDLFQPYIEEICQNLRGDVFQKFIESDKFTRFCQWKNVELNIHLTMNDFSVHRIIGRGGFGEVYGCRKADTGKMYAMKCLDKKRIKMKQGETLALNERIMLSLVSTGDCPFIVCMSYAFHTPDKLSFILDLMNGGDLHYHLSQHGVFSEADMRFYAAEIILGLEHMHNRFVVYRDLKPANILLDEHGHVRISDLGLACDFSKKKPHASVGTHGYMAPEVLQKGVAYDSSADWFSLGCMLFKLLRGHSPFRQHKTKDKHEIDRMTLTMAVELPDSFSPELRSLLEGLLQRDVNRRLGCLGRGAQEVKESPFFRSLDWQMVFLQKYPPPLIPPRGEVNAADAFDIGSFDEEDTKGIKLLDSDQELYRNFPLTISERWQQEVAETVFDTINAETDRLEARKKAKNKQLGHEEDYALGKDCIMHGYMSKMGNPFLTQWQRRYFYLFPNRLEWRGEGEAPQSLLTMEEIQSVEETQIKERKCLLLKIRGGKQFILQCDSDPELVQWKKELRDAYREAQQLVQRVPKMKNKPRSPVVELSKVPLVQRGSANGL
Calls of active or inactive are those of the source.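 The calls were made as follows: active = aptamer binding inhibition above 30%, about 3 SD of noise from non-fluorescent compounds; inactive = inhibition at or below 30%.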
Hi there, I'd appreciate the recorded aptamer binding inhibition for every entry that follows.

Compound | aptamer binding inhibition
O=C(COc1ccccc1)N1CCN(c2ccccc2)CC1 | 2% (inactive)
COc1ccc(C=NCC2COc3ccccc3O2)cc1OC (stereo not drawn) | -1% (inactive)
CC(C)CC(=O)N(Cc1ccc(F)cc1)C1CCS(=O)(=O)C1 (stereo not drawn) | 2% (inactive)

Record aptamer binding inhibition for all entries; do not skip any.
1. CCOC(=O)C1C(=O)CC(C)(O)C(C(=O)OCC)C1/C=C/c1ccccc1 (stereo not drawn)
2. COc1cccc(CN2CCN(C(=O)c3ccc(-c4ccccc4)cc3)CC2)c1
3. CCn1c(O)c(/C=C2\C=Nc3ccccc32)sc1=O
4. COc1ccc2[nH]cc(CCNC(=O)C3CCCNC3=O)c2c1 (stereo not drawn)
5. COc1cccc(OC)c1C(=O)Nc1nc2ccc([N+](=O)[O-])cc2s1

stdout:
2% (inactive)
2% (inactive)
1% (inactive)
-7% (inactive)
-2% (inactive)

Record aptamer binding inhibition for all entries; do not skip any.
1. COC1=CC(=O)CC(C)C12Oc1c(Cl)c(OC)cc(OC)c1C2=O (stereo not drawn)
2. COc1ccc(/C=N\NC(=O)CCc2c(C)n[nH]c2C)c(OC)c1OC

stdout:
1. -1% (inactive)
2. 2% (inactive)

Record aptamer binding inhibition for all entries; do not skip any.
1. Cc1cccc(N2C(=O)C3C(c4ccccc4)OC4(C(=O)c5ccccc5C4=O)C3C2=O)c1 (stereo not drawn)
2. CC(C)Cc1ccc(C(C)C(=O)Nc2ccc(O)cc2)cc1 (stereo not drawn)
3. Nc1nc2c(ncn2COCCO)c(=O)[nH]1

stdout:
1. 3% (inactive)
2. 2% (inactive)
3. 6% (inactive)
